As an illustration, consider measured GI50 for compounds on SK-MEL-2 melanoma.

The observed GI50 for COc1cccc(C2NC(=S)NC(C)=C2C(=O)Nc2ccc(Cl)c(Cl)c2)c1 (centres undefined) when tested with SK-MEL-2 melanoma stands at 15.7 µM

---

GI50 for assorted molecules
Test system: SK-MEL-2 melanoma
protocol.summary: NCI tumour cell line growth inhibition, 48 h

Consider the following illustrative entries.
molecule=CC(=O)Oc1ccc(/C=N/NC(N)=S)nc1 result="77 µM"
molecule=Cc1cc(Cl)ccc1NS(=O)(=O)c1ccc(-c2cnc(C3CC3)o2)cc1 result="0.677 µM"
molecule=CC1(C)CC[C@]2(C(N)=O)CC[C@]3(C)C(=CC[C@@H]4[C@@]5(C)C/C(=C/c6ccncc6)C(=O)C(C)(C)[C@@H]5CC[C@]43C)[C@@H]2C1 result="1.92 µM"
molecule="CC1(C)OC2C(COS(N)(=O)=O)SC(n3cnc4cncnc43)C2O1 (stereo not given)" result="> 100 µM"

Now for another entry.
Measured GI50, CSC1=NCC2(S1)c1ccccc1N(C(=O)OC(C)(C)C)C2N1CCCCC1 (stereo not given) : > 100 µM

---

Test system: HCT-15 colon
protocol.summary: NCI tumour cell line growth inhibition, 48 h
Decision: TGI >= 20 µM yields y, all other cases yield n.

The following compounds have reported results that may help.
compound="COc1cccc(NC(=O)C(=O)C(C(C)=O)c2nc3ccc(Cl)cc3[nH]c2=O)c1 (stereo not given)" label=y
compound=Nc1ccc2c(c1)c(N)nn2C(=O)Nc1ccc(Cc2ccccc2)cc1 label=n
compound=COc1cc2cc3c4c(cc(OC)c(OC)c4c2cc1OC)CCN3C(=O)CCC(=O)NCCCN(C)C label=y

Query: Test whether the compound CSc1nc(NC(C)C)c2c(n1)Sc1nc3ccccc3n1C2O (stereo not given) records TGI of 20 µM or higher.
Reply: y

Query: Test whether the compound Cc1ccc(/C(O)=C/c2nc3ccc([N+](=O)[O-])cc3nc2/C=C(\O)c2ccc(C)cc2)cc1 records TGI of 20 µM or higher.
Reply: y

Query: Test whether the compound COc1cc2c(c(OC)c1OC)-c1ccc(SC)c(=O)cc1[C@@H](NC(=O)c1ccc(Cl)cc1)CC2 records TGI of 20 µM or higher.
Reply: n

Query: Test whether the compound NCCOCC(N)C(=O)O (stereo not given) records TGI of 20 µM or higher.
Reply: y

Query: Test whether the compound CCN(CC)c1ccc2cc(-c3nc4ccccc4c(=O)[nH]3)c(=N)oc2c1 records TGI of 20 µM or higher.
Reply: y

Query: Test whether the compound O=c1cc(NCc2ccncc2)[nH]c(=O)[nH]1 records TGI of 20 µM or higher.
Reply: y

Query: Test whether the compound COc1ccc2nc3ccccc3c(NCCCCN(C)CCCl)c2c1 records TGI of 20 µM or higher.
Reply: n

---

System: KM12 colon
protocol.summary: NCI tumour cell line growth inhibition, 48 h
TGI for assorted compounds
Write down the numeric answer in µM and omit the unit.

compound="COc1ccc(-c2cc(C(O)C3CCCCN3)c3ccccc3n2)cc1 (stereo not given)" quantity_kind=TGI numeric_value=15.3
compound=CCCCCCCCCCCCCc1nn[nH]n1 quantity_kind=TGI numeric_value=32.9
compound=CO[C@]1(CN2CCN3CCCC[C@@H]3C2)/C=C/C[C@H](C)[C@@H](C)S(=O)(=O)NC(=O)c2ccc3c(c2)N(C[C@@H]2CC[C@H]21)C[C@@]1(CCCc2cc(Cl)ccc21)CO3 quantity_kind=TGI numeric_value=3.25
compound="O=C1CC(n2cccc2)c2c(Br)sc(Br)c21 (stereo not given)" quantity_kind=TGI numeric_value=22.8
compound=COc1cc(NC(=O)Nc2cnc(Nc3ccc(N4CCOCC4)cc3)nc2Oc2cccc(OC)c2)cc(OC)c1 quantity_kind=TGI numeric_value=22.5

Measured TGI, CCC(CC(C)C)Nc1ccc(NC(CC)CC(C)C)cc1 (stereo not given) : 30.2

Measured TGI, C/C(=N\Nc1nc2ccccc2[nH]1)c1cc2ccccc2cn1 : 1.88

Measured TGI, O=C(Cc1csc2nc(-c3ccc(Br)cc3)cn12)N/N=C/c1ccc(O)cc1 : 76.7

Measured TGI, O=C(c1ccc(Cl)cc1)C1OC12C(=O)Nc1ccccc12 (stereo not given) : 32.5

Measured TGI, CC/C=C\C/C=C\C[C@H](O)C/C=C1/C(=O)C=C[C@@H]1C/C=C\CCCC(=O)OC : 5.02

src = PubChem BioAssay (NCI)
